assay: In vivo pharmacokinetics of valsartan in rat plasma, with or without abdominal X-ray irradiation; parameters: species or system Sprague Dawley (SD) rats; conditions: male, Sprague-Dawley, rat, plasma, po, 10 mg/kg, valsartan 10 mg/kg by gavage, Control group, Mean ± SD, n = 6
Assay metric: half-life (h)

- CCCCC(=O)N(Cc1ccc(-c2ccccc2-c2nnn[nH]2)cc1)[C@H](C(=O)O)C(C)C: 3.57

---

Test: In vivo pharmacokinetics of valsartan in rat plasma, with or without abdominal X-ray irradiation
Parameters: species or system Sprague Dawley (SD) rats
Conditions: male, Sprague-Dawley, rat, plasma, po, 10 mg/kg, 10 mg/kg by gavage, IR-5 Gy, read-out: MRT0–24h
Description: Valsartan was administered by gavage (10 mg/kg) after forming a homogeneous suspension (2 mg/mL) with 1% CMC-Na by grinding and stirring. Before and after administration (0.083, 0.25, 0.5, 1, 2, 4, 6, 8, 12, and 24 h), the rats in group A (n = 6) and group B (n = 6) were anesthetized with isoflurane. […] Quantitative analysis of LC-MS/MS results was performed using Analyst 1.6.3 program. The pharmacokinetic parameters were calculated using the WinNonlin 8.3 program. […]
Assay metric: MRT last

* CCCCC(=O)N(Cc1ccc(-c2ccccc2-c2nnn[nH]2)cc1)[C@H](C(=O)O)C(C)C | 4.52 h

---

assay: In vivo pharmacokinetics of valsartan in rat plasma, with or without abdominal X-ray irradiation; design: species or system Sprague Dawley (SD) rats; conditions: male, Sprague-Dawley, rat, plasma, po, 10 mg/kg, 10 mg/kg by gavage, Control group
Assay metric: Cmax (ng/mL)

* CCCCC(=O)N(Cc1ccc(-c2ccccc2-c2nnn[nH]2)cc1)[C@H](C(=O)O)C(C)C | 4430

---

assay: In vivo pharmacokinetics of valsartan in rat plasma, with or without abdominal X-ray irradiation; set-up: species or system Sprague Dawley (SD) rats; conditions: male, Sprague-Dawley, rat, plasma, po, 10 mg/kg, 10 mg/kg by gavage, Figure 1, read-out: time of peak plasma concentration
Assay metric: Tmax

- CCCCC(=O)N(Cc1ccc(-c2ccccc2-c2nnn[nH]2)cc1)[C@H](C(=O)O)C(C)C: ~15 min

---

assay: In vivo pharmacokinetics of valsartan in rat plasma, with or without abdominal X-ray irradiation; parameters: species or system Sprague Dawley (SD) rats; settings: male, Sprague-Dawley, rat, plasma, po, 10 mg/kg, 10 mg/kg by gavage, Control group, read-out: AUC0–24h
Assay metric: AUC(0-t)

• CCCCC(=O)N(Cc1ccc(-c2ccccc2-c2nnn[nH]2)cc1)[C@H](C(=O)O)C(C)C = 8460 ng·h/mL

---

assay: In vivo pharmacokinetics of valsartan in rat plasma, with or without abdominal X-ray irradiation; design: species or system Sprague Dawley (SD) rats; conditions: male, Sprague-Dawley, rat, plasma, po, 10 mg/kg, valsartan 10 mg/kg by gavage, IR-5 Gy (abdominal X-ray 24 h before), Mean ± SD, n = 6
Assay metric: half-life (h)

• CCCCC(=O)N(Cc1ccc(-c2ccccc2-c2nnn[nH]2)cc1)[C@H](C(=O)O)C(C)C = 5.03

---

assay: In vivo pharmacokinetics of valsartan in rat plasma, with or without abdominal X-ray irradiation; set-up: species or system Sprague Dawley (SD) rats; details: male, Sprague-Dawley, rat, plasma, po, 10 mg/kg, 10 mg/kg by gavage, IR-5 Gy, read-out: AUC0–24h
Assay metric: AUC(0-t) (ng·h/mL)

• CCCCC(=O)N(Cc1ccc(-c2ccccc2-c2nnn[nH]2)cc1)[C@H](C(=O)O)C(C)C = 5270

---

experiment: In vivo pharmacokinetics of valsartan in rat plasma, with or without abdominal X-ray irradiation; design: species or system Sprague Dawley (SD) rats; details: male, Sprague-Dawley, rat, plasma, po, 10 mg/kg, 10 mg/kg by gavage, Control group, read-out: Tmax
Assay metric: Tmax

- CCCCC(=O)N(Cc1ccc(-c2ccccc2-c2nnn[nH]2)cc1)[C@H](C(=O)O)C(C)C: 15 min

---

test: In vivo pharmacokinetics of valsartan in rat plasma, with or without abdominal X-ray irradiation; set-up: species or system Sprague Dawley (SD) rats; conditions: male, Sprague-Dawley, rat, plasma, po, 10 mg/kg, 10 mg/kg by gavage, IR-5 Gy
Assay metric: AUC(0-inf) (ng·h/mL)

- CCCCC(=O)N(Cc1ccc(-c2ccccc2-c2nnn[nH]2)cc1)[C@H](C(=O)O)C(C)C [valsartan, Valsartan]: 5470

---

assay: In vivo pharmacokinetics of valsartan in rat plasma, with or without abdominal X-ray irradiation; parameters: species or system Sprague Dawley (SD) rats; conditions: male, Sprague-Dawley, rat, plasma, po, 10 mg/kg, 10 mg/kg by gavage, IR-5 Gy, read-out: Tmax
Assay metric: Tmax (min)

- CCCCC(=O)N(Cc1ccc(-c2ccccc2-c2nnn[nH]2)cc1)[C@H](C(=O)O)C(C)C: 13.3
